- Test system: RPMI-8226 leukemia
- procedure summary: NCI tumour cell line growth inhibition, 48 h
readout type: TGI

Example entries begin here.
CCOC(=O)c1cccc(N=Nc2nc[nH]c2/C=C/C(=O)OC)c1 = > 100 µM
CC(=O)ON1CCCC(P(=O)(OCCSC(=O)C(C)(C)C)OCCSC(=O)C(C)(C)C)C1=O (stereo not given) = 11.3 µM
CC(NC(=O)Cc1ccccc1)NC(=O)C(C)C(=O)Nc1ccccc1 (stereo not given) = > 100 µM
CC(C)(C)[Si](C)(C)OCC1OC(n2ccc(=O)[nH]c2=O)C(O[Si](C)(C)C(C)(C)C)/C1=C/C#N (stereo not given) = > 100 µM

Next molecule, TGI to be filled in.
Which TGI value is on record for "C=C(C(=O)OCC)C(=O)OCC" ?
> 100 µM

Source of measurements: PubChem BioAssay (NCI)
